For each of the compounds below, state its TGI.
system: SNB-75 CNS; experiment: NCI tumour cell line growth inhibition, 48 h
Reply numerically in µM, unit not repeated.

**Q:** What value of measured TGI is listed for CC(C)C1CC(CO)(CNc2nc(N)nc(Cl)c2C=O)C1 (stereo unspecified) ?
**A:** 15.4

**Q:** Now give it for `Cc1ccc(CNc2ccc(Cl)cc2NCc2ccc(C)c(O)c2)cc1O` too.
**A:** 12.1

**Q:** Now give it for `CCOC(=O)c1c2ccccc2n2c(=O)n(-c3ccccc3)nnc12` too.
**A:** 89.5

**Q:** Now give it for `CN(C)CCCCN1c2ccccc2Sc2ccc(N=[N+]=[N-])cc21` too.
**A:** 10

**Q:** Now give it for `c1ccc2sc(C3(N4CCCCCC4)CCCCC3)cc2c1` too.
**A:** 62.1

----------
test system: MOLT-4 leukemia; test: NCI tumour cell line growth inhibition, 48 h; in the data active = GI50 below about 0.43 µM; inactive = the rest
Log the outcome using a class from yes (active), no (inactive)

**Q:** Query: recorded result category for `N#CSc1c[nH]c2cccc(/C=C/C(=O)/C=C(O)/C=C/c3cccc4[nH]cc(SC#N)c34)c12` in this test
**A:** yes

**Q:** Now give it for COc1ccc2c(c1)OCC1c3cc(OC)ccc3OC21 (stereo not drawn) too.
**A:** no

**Q:** Now give it for `C=C1C(=O)O[C@H]2[C@H]1CC/C(COC(=O)NCc1ccc(Cn3c(=O)sn(CCCI)c3=O)cc1)=C\CC[C@@]1(C)O[C@@H]21` too.
**A:** yes

**Q:** Now give it for `CC(C)CC(=O)O[C@H]1C(=O)O[C@@H]2C[C@H]3[C@H](C)C(=O)C(O[C@@H]4O[C@H](CO)[C@@H](O)[C@H](O)[C@H]4O)=C[C@]3(C)[C@H]3[C@@H](O)[C@H](O)[C@]4(C(=O)O)OC[C@]32[C@@H]14` too.
**A:** no

**Q:** Now give it for `CCOc1ccc(-c2nc3ccc(-c4nc5ccc(N6CCN(C)CC6)cc5[nH]4)cc3[nH]2)cc1OCC` too.
**A:** no

**Q:** Now give it for `Cc1ccc(CNc2ccc(Cl)cc2NCc2ccc(C)c(O)c2)cc1O` too.
**A:** no

**Q:** Now give it for CCCN1CCCC(c2ccc(Nc3nc(Nc4cc(F)ccc4C(N)=O)c4cc[nH]c4n3)c(OC)c2)C1 (stereo not drawn) too.
**A:** no

**Q:** Now give it for `CC(C)c1c(C(=O)Nc2ccccc2)c(-c2ccccc2)c(-c2ccc(F)cc2)n1CC[C@@H](O)C[C@@H](O)CC(=O)O` too.
**A:** no

----------
test system: NCI-H226 lung; assay: NCI tumour cell line growth inhibition, 48 h
metric: TGI (µM)
Reply numerically in µM, unit not repeated.

**Q:** What value of measured TGI is listed for `COC(=O)c1c(O)ccc2c1c1c(n2CCc2ccccc2)C(=O)c2ccccc2C1` ?
**A:** 40

**Q:** Now give it for `COc1cc(CCNC2=CC(=O)c3ncccc3C2=O)ccc1O` too.
**A:** 6.62

**Q:** Now give it for `N=C(N)c1ccc(-c2ccc(-c3cccs3)s2)cc1F` too.
**A:** 3.86

**Q:** Now give it for CC1(C)OC2OC(/C=C/[N+](=O)[O-])C3OC(C)(C)OC3C2O1 (stereo not given) too.
**A:** 37.1

**Q:** Now give it for CCCN1CCCC(c2ccc(Nc3nc(Nc4cc(F)ccc4C(N)=O)c4cc[nH]c4n3)c(OC)c2)C1 (stereo not given) too.
**A:** 6.68

**Q:** Now give it for `CCN(CC)CCN1C(=O)c2cccc3cc(N)cc(c23)C1=O` too.
**A:** 36.6

**Q:** Now give it for `C=C1C(=O)O[C@H]2[C@@H]3O[C@@](C)(CC/C=C(\C)CCC[C@@H]2C)[C@H](O)C[C@@H]13` too.
**A:** 5.89

**Q:** Now give it for `CN(C)CCCn1c2c(c3ccc(N4CCNCC4)cc3c1=O)C(=O)c1ccccc1-2` too.
**A:** 2.9

----------
For each of the molecules below, state its TGI.
tested on: HCT-116 colon; assay: NCI tumour cell line growth inhibition, 48 h

**Q:** What value of measured TGI is listed for `COc1cc(/C=C(\C#N)C(=O)c2ccccc2)cc(OC)c1OC` ?
**A:** > 100 µM

**Q:** Now give it for `O=c1cc(O)c1=O` too.
**A:** > 100 µM

**Q:** Now give it for `CC(C)CCNC(=O)c1ccc(CNC(=O)/C=C/c2ccc3c(c2)-c2ccccc2C3)cc1` too.
**A:** > 100 µM

**Q:** Now give it for `CCCCc1c2c([n+]([O-])c3c1CCCC3)CCCC2` too.
**A:** > 100 µM

**Q:** Now give it for Nc1cc2c(C3OC(CO)C(O)C3O)[nH]nc2c(=S)[nH]1 (stereo unspecified) too.
**A:** > 100 µM

**Q:** Now give it for `FC(F)(F)c1ccc(-c2cnc(-c3nn[nH]n3)nc2NC2CCCCCC2)cc1` too.
**A:** > 10 µM

**Q:** Now give it for CC[C@H]1CNC(=O)CC1CC(=O)OC (stereo partly specified) too.
**A:** > 100 µM

**Q:** Now give it for `CSc1ccc(/C=C2\N=C(c3ccccc3)N(NC(=O)c3c(Cl)c(Cl)c(Cl)c(Cl)c3-c3nc4ccccc4[nH]3)C2=O)cc1` too.
**A:** 83.3 µM

**Q:** Now give it for `C/C(=N\NC(N)=S)c1ccc(Oc2ccccc2)cc1` too.
**A:** 22.6 µM

**Q:** Now give it for `C/C(=C/C(=O)N(C)c1ccccc1Cl)O[Si](C(C)C)(C(C)C)C(C)C` too.
**A:** 34.2 µM

**Q:** Now give it for `CC(=O)Nc1ccc(/C=C/C(=O)c2sc(-n3nc(-c4ccccc4)cc3-c3ccccc3)nc2C)cc1` too.
**A:** > 100 µM

----------
system: COLO 205 colon; assay: NCI tumour cell line growth inhibition, 48 h
metric: TGI

**Q:** What value of measured TGI is listed for CC(=O)C1=C(C)N2C(=NC3=C(CCc4ccccc43)C2c2ccc(Cl)cc2)S1 (centres undefined) ?
**A:** > 100 µM

**Q:** Now give it for `COc1ccc(Cc2c3cc(OC)c(OC)cc3cc[n+]2C)cc1` too.
**A:** > 16.7 µM

**Q:** Now give it for `C=C1C(=O)O[C@H]2[C@@H]3O[C@@](C)(CC/C=C(\C)CCC[C@@H]2C)[C@H](O)C[C@@H]13` too.
**A:** 8.86 µM

**Q:** Now give it for COc1nc2c(c(=O)[nH]1)N=C(c1ccc([N+](=O)[O-])cc1)CC(c1ccccc1)N2 (centres undefined) too.
**A:** > 100 µM

**Q:** Now give it for `N#CSc1c[nH]c2cccc(/C=C/C(=O)/C=C(O)/C=C/c3cccc4[nH]cc(SC#N)c34)c12` too.
**A:** 1.07 µM

**Q:** Now give it for `O=c1oc2cc(O)ccc2c(O)c1C(c1ccc(/C=C/c2ccccc2)cc1)c1c(O)c2ccc(O)cc2oc1=O` too.
**A:** > 100 µM

**Q:** Now give it for `CN1CN(c2ccccc2)C2(CCN(CCCN(C)c3ccc(F)cc3)CC2)C1=O` too.
**A:** 24.1 µM

**Q:** Now give it for `CSc1cnc2ccccc2c1Sc1cn(C)c2ccccc2c1=O` too.
**A:** > 100 µM

**Q:** Now give it for `C/C(=N\NC(N)=S)c1ccc(Oc2ccccc2)cc1` too.
**A:** 25.7 µM

**Q:** Now give it for `CC(=O)NNc1nc(C)c(C(=O)NNC(=O)C(=O)Nc2ccc(C)cc2[N+](=O)[O-])s1` too.
**A:** > 100 µM

**Q:** Now give it for `CCO/C=N\C1=C(C#N)SC2=N/C(=C\c3ccco3)C(=O)N21` too.
**A:** > 100 µM

**Q:** Now give it for `COc1cccc(O)c1-c1cc(=O)c2c(O)c(OC)c(OC)c(OC)c2o1` too.
**A:** 39.1 µM

**Q:** Now give it for `Cc1ccc(Nc2nc3ccccc3nc2NS(=O)(=O)c2ccc(N)cc2)cc1` too.
**A:** > 100 µM

**Q:** Now give it for `CCOC(=O)c1c2ccccc2n2c(=O)n(-c3ccccc3)nnc12` too.
**A:** > 100 µM

**Q:** Now give it for `CCOC(=O)c1nc2ccccc2nc1Oc1ccc(F)cc1` too.
**A:** > 100 µM

**Q:** Now give it for `O=C(NNC(=O)c1cc2ccccc2[nH]1)c1cc2ccccc2[nH]1` too.
**A:** > 100 µM

**Q:** Now give it for `CN(C)CCCCN1c2ccccc2Sc2ccc(N=[N+]=[N-])cc21` too.
**A:** 3.13 µM

**Q:** Now give it for CC1SC(c2ccc(OCc3ccccc3)cc2)N(NC(=O)C(O)(c2ccccc2)c2ccccc2)C1=O (centres undefined) too.
**A:** 4.26 µM

**Q:** Now give it for `CN(C)CCC(C#N)(c1ccccc1)c1ccccc1` too.
**A:** > 100 µM

**Q:** Now give it for O=C(c1ccccc1)N1N=C(C(F)(F)F)CC1(O)C(F)(F)F (centres undefined) too.
**A:** > 100 µM

**Q:** Now give it for `Nc1ccc(Oc2ccc(C3(c4ccc(Oc5ccc(N)c(O)c5)cc4)C4CC5CC(C4)CC3C5)cc2)cc1O` too.
**A:** 1.72 µM

**Q:** Now give it for `O=C1C/C(=C\c2ccccc2)C(=O)c2ccccc2N1` too.
**A:** 34.8 µM

**Q:** Now give it for `CC(C)CCNC(=O)c1ccc(CNC(=O)/C=C/c2ccc3c(c2)-c2ccccc2C3)cc1` too.
**A:** > 100 µM

**Q:** Now give it for `NS(=O)(=O)c1ccc(NNc2c3ccccc3nc3c(C(=O)Nc4ccc(S(N)(=O)=O)cc4)cccc23)cc1` too.
**A:** > 100 µM

**Q:** Now give it for `CC(=O)[O-].O=C([CH-]C(=O)c1ccccc1)c1ccccc1.O=C([CH-]C(=O)c1ccccc1)c1ccccc1.[Dy+3]` too.
**A:** 34.1 µM

**Q:** Now give it for COc1ccc(Cc2nc3cc(C(F)(F)F)ccc3n2C[C@@H]2CCCN3CCCCC23)cc1 (some centres undefined) too.
**A:** 18.9 µM

**Q:** Now give it for FC(F)(F)c1ccc2c(c1)nc(Cc1ccc(Cl)cc1)n2CC1CCCN2CCCCC12 (centres undefined) too.
**A:** 16 µM

**Q:** Now give it for Cc1cc(C)c(CNC(=O)c2cc(Cl)c3c(c2C)O[C@@](C)(C2CCC(N(C)C)CC2)O3)c(=O)[nH]1 (some centres undefined) too.
**A:** > 100 µM

**Q:** Now give it for O=c1ccn([C@@H]2C[C@H](CO)CS(=O)C2)c(=O)[nH]1 (some centres undefined) too.
**A:** > 100 µM

**Q:** Now give it for C/C=C/C(C/C=C(\C)CO[Si](C)(C)C(C)(C)C)O[Si](C)(C)C(C)(C)C (centres undefined) too.
**A:** > 100 µM

**Q:** Now give it for N#CC(NNC(=O)c1ccccc1O)c1ccccc1O (centres undefined) too.
**A:** > 100 µM

**Q:** Now give it for `CCOc1ccc(-c2nc3ccc(-c4nc5ccc(N6CCN(C)CC6)cc5[nH]4)cc3[nH]2)cc1OCC` too.
**A:** 2 µM

**Q:** Now give it for `COCc1nc(C#N)c(N)o1` too.
**A:** > 10 µM

**Q:** Now give it for `COc1cc2nc(NC3CCC3)nc(NC3CCN(C(C)C)CC3)c2cc1OC` too.
**A:** 3.81 µM

**Q:** Now give it for `C(#C[C@@]12CCC[C@@H]1NCO2)c1ccc2c(c1)OCO2` too.
**A:** 31.5 µM

**Q:** Now give it for `CCn1nc(C#Cc2c(C)ccc3c(Nc4ccc(Cl)cc4)nccc23)c2c(N)ncnc21` too.
**A:** > 100 µM

**Q:** Now give it for `O=c1[nH]c2ccccc2c(=O)c2cc3ccccc3cc12` too.
**A:** > 100 µM

**Q:** Now give it for `CC1(C)N=C(N)N=C(N)N1c1cccc(CC(=O)Nc2ccccc2)c1` too.
**A:** > 100 µM

**Q:** Now give it for `C=C(C)[C@@H]1CC[C@]2(C(=O)OC)CC[C@]3(C)[C@H](CC[C@@H]4[C@@]5(C)CC/C(=N\OCCC(=NCCC#N)NOCCC#N)C(C)(C)[C@@H]5CC[C@]43C)[C@@H]12` too.
**A:** > 50 µM
